Biological target: full length AKT1 (Homo sapiens, UniProt P31749)
Construct: His tag (from vector pFastBacHTb) (N); made in house; host or cells: baculovirus; Sf9 / T. ni insect cells
Sequence (P31749 whole entry): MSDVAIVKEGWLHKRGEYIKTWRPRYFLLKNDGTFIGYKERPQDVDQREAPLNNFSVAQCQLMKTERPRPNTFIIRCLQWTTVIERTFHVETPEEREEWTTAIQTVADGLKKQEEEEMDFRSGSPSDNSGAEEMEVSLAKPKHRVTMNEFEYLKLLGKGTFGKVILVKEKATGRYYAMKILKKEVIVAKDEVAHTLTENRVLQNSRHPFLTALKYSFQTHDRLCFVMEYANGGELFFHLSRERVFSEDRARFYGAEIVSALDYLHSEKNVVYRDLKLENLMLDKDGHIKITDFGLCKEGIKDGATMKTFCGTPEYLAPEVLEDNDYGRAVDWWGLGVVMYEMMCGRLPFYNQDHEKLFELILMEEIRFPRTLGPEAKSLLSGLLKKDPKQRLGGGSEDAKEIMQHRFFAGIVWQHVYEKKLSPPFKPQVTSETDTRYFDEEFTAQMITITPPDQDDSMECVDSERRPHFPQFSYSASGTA
Test: AKT enzyme assay (substrate phosphorylation, SPA)
Assay type: biochemical
Details: in at least one experimental run; pIC50 = -log(IC50), IC50 in molar units; 10 nM activated AKT enzyme, 4 uM ATP; read-out: pIC50 against full length AKT1 (converted)
One threshold, 5 nM, splits the recorded IC50 values: lower ones are true (1), equal or higher ones are false (0).

{"COMPOUND": "Cn1ncc(Cl)c1-c1cc(NC(=O)[C@H](CN)Cc2ccc(F)c(F)c2)sc1Cl", "DISCRETE LABEL": "true (1)"}
{"COMPOUND": "Cn1ncc(Cl)c1-c1cc(NC(=O)[C@@H](CN)Cc2ccccc2)sc1Cl", "DISCRETE LABEL": "false (0)"}
{"COMPOUND": "Cn1ncc(Cl)c1-c1cc(NC(=O)[C@H](CN)Cc2cccc(F)c2)sc1Cl", "DISCRETE LABEL": "true (1)"}
{"COMPOUND": "Cn1nccc1-c1c(Cl)sc(NC(=O)C(CN)c2ccccc2)c1Cl (centres unmarked)", "DISCRETE LABEL": "false (0)"}
